Test system: chickweed
METHOD_NOTES: Test C postemergence herbicide test
Format: in vivo, Stellaria media
TEST_CONTEXT: postemergence; 62 g ai/ha; scale 0 to 100
Below is a list of entries, each paired with its recorded Plant response rating, Chickweed value.
Would you mind answering with just the numeric figure?

Example entries and their recorded answers appear below.
chemical_string=C#CCNC(=O)c1cccc(NC(=O)c2cc(C(C)(C)C)nn2CC)c1 measurement=90
chemical_string=CCn1nc(C(C)(C)C)cc1C(=O)Nc1cccc(OC(F)F)c1 measurement=60
chemical_string=C#CCn1nc(C(C)(C)C)cc1C(=O)Nc1cccc(C(=O)NCC)c1 measurement=0

Please find the next compound below.
Query :: I am curious: what Plant response rating, Chickweed value has been reported for `C=CCNC(=O)c1cccc(NC(=O)c2cc(C(C)(C)C)nn2CC)c1` ?
Result :: 70

====

Test system: tropical spiderwort
METHOD_NOTES: Test E pre-/postemergence herbicide test
Assay type: in vivo, Commelina benghalensis
TEST_CONTEXT: Preemergence; 250 g ai/ha; scale 0 (no effect) to 100 (complete control)
Below is a list of entries, each paired with its recorded Plant response rating, Spiderwort value.

Example entries and their recorded answers appear below.
chemical_string=CCc1nn(C(C)(C)C)nc1C(=O)Nc1cccc(C(=O)N(C)CC)c1 measurement=60
chemical_string=CCc1nn(C(C)(C)C)cc1C(=O)Nc1cc(C(=O)N(C)C)ccn1 measurement=80
chemical_string=CCn1nc(C(C)(C)C)cc1C(=O)Nc1cccc(C(N)=O)n1 measurement=75

Query :: I am curious: what Plant response rating, Spiderwort value has been reported for `CCc1nn(C(C)(C)C)nc1C(=O)Nc1cccc(C(=S)N(C)C)c1` ?
Result :: 60

====

Tested on: kochia
METHOD_NOTES: Test C pre-/postemergence herbicide test
Assay type: in vivo, Kochia scoparia
TEST_CONTEXT: Postemergence, 500 g ai/ha; scale 0 to 100
Excerpt: […]
Below is a list of entries, each paired with its recorded Kochia plant response rating value.
Would you mind answering with just the numeric figure?

Query :: I am curious: what Kochia plant response rating value has been reported for CC(=NO)c1cccc(NC(=O)c2cc(C(C)(C)C)nn2CCF)c1 [Compound 115] ?
Result :: 90

Query :: I am curious: what Kochia plant response rating value has been reported for CCCCOC(=O)c1cccc(NC(=O)c2cc(C(C)(C)C)nn2CC)c1 [Compound 86] ?
Result :: 95

====

Tested on: woolly cupgrass
METHOD_NOTES: Test C pre-/postemergence herbicide test
Assay type: in vivo, Eriochloa villosa
TEST_CONTEXT: 250 g ai/ha; scale 0 to 100 (0 no effect, 100 complete control); visual, 12 to 14 days; preemergence
MEASUREMENT_KIND: Plant response rating, Cupgrass, Woolly
Would you mind answering with just the numeric figure?

chemical_string=C=Cn1nc(C(C)(C)C)cc1C(=O)Nc1cccc(C(C)=NO)c1 measurement=30
chemical_string=CCN(C)C(=O)c1cccc(NC(=O)c2cc(C(C)(C)C)nn2CC)c1 measurement=5
chemical_string=C#CCNC(=O)c1cccc(NC(=O)c2cc(C(C)(C)C)nn2CC)c1 measurement=60

Please find the next compound below.
Query :: I am curious: what Plant response rating, Cupgrass, Woolly value has been reported for `C#CCn1nc(C(C)(C)C)cc1C(=O)Nc1cccc(C(=O)NCC)c1` ?
Result :: 30
